# Tested on: Colorado potato beetle (Leptinotarsa decemlineata)
# ASSAY_SUMMARY: Insecticidal test for Colorado potato beetle, foliar spray on tomato
# Format: in vivo
# MEASUREMENT_CONDITIONS: 50 ppm, rundown assay
MEASURED_QUANTITY: % Control at ppm, against Colorado potato beetle: 50

{"COMPOUND": "N#CN=[S@@]1(=O)CCCC1Cc1ccc(Cl)nc1 (stereo partly shown)", "VALUE_MEASURED": "A (90-100)"}
{"COMPOUND": "O=[N+]([O-])N=[S@@]1(=O)CCCC1Cc1ccc(Cl)nc1 (stereo partly shown)", "VALUE_MEASURED": "A (90-100)"}
{"COMPOUND": "CC(c1ccc(Cl)nc1)S(C)(=O)=NC#N (stereo not shown)", "VALUE_MEASURED": "A (90-100)"}

---

# System: green peach aphid (Myzus persicae)
# ASSAY_SUMMARY: Insecticidal test for green peach aphid, foliar spray on cabbage seedlings
# MEASUREMENT_CONDITIONS: 50 ppm, rundown assay, 3 days
MEASURED_QUANTITY: % Control at ppm, against green peach aphid: 50

{"COMPOUND": "CC(c1ccc(Cl)nc1)S(C)(=O)=N[N+](=O)[O-] (stereo not shown) [Compound 36]", "VALUE_MEASURED": "A (90-100)"}
{"COMPOUND": "O=[N+]([O-])N=[S@@]1(=O)CCCC1Cc1ccc(Cl)nc1 (stereo partly shown) [Compound 41]", "VALUE_MEASURED": "A (90-100)"}
{"COMPOUND": "N#CN=[S@@]1(=O)CCCC1Cc1ccc(Cl)nc1 (stereo partly shown) [Compound 20]", "VALUE_MEASURED": "A (90-100)"}

---

# Tested on: green peach aphid (Myzus persicae)
# ASSAY_SUMMARY: Insecticidal test for green peach aphid, foliar spray on cabbage seedlings
# MEASUREMENT_CONDITIONS: 3.12 ppm, rundown assay, 3 days
MEASURED_QUANTITY: % Control at ppm, against green peach aphid: 3.12

{"MOLECULE": "CC(c1ccc(Cl)nc1)[S@](C)(=O)=NC#N (stereo partly drawn)", "VALUE_MEASURED": "A (90-100)"}
{"MOLECULE": "CC(c1ccc(Cl)nc1)S(C)(=O)=N[N+](=O)[O-] (stereo not drawn)", "VALUE_MEASURED": "C (70-79)"}
{"MOLECULE": "CS(=O)(CCc1ccc(Cl)nc1)=NC#N (stereo not drawn)", "VALUE_MEASURED": "C (70-79)"}
{"MOLECULE": "C[C@H](c1ccc(Cl)nc1)[S@](C)(=O)=NC#N", "VALUE_MEASURED": "A (90-100)"}

---

# Tested on: corn earworm (Helicoverpa zea)
# MEASUREMENT_CONDITIONS: 50 μg/cm2, second-instar larvae, 5 days
MEASURED_QUANTITY: CEW 50: % mortality at 50 μg/cm2 against corn earworm in dietary tests

{"MOLECULE": "CC(CS(C)(=O)=N[N+](=O)[O-])c1ccc(Cl)nc1 (centres unmarked)", "TARGET_OF_ASSAY": "corn earworm (Helicoverpa zea)", "VALUE_MEASURED": "G (Inactive)"}
{"MOLECULE": "CC[S@](=O)(=NC#N)[C@@H](C)c1ccc(Cl)nc1", "TARGET_OF_ASSAY": "corn earworm (Helicoverpa zea)", "VALUE_MEASURED": "G (Inactive)"}
{"MOLECULE": "CCOc1ccc(S(C)(=O)=NC#N)cn1 (centres unmarked)", "TARGET_OF_ASSAY": "corn earworm (Helicoverpa zea)", "VALUE_MEASURED": "G (Inactive)"}
{"MOLECULE": "CS(=O)(Cc1ccc(Cl)nc1)=NC#N (centres unmarked)", "TARGET_OF_ASSAY": "corn earworm (Helicoverpa zea)", "VALUE_MEASURED": "G (Inactive)"}
{"MOLECULE": "CC[S@@](=O)(C[C@@H](C)c1ccc(Cl)nc1)=NC#N", "TARGET_OF_ASSAY": "corn earworm (Helicoverpa zea)", "VALUE_MEASURED": "G (Inactive)"}
